Reported EC50 is given for each of the following compounds.
# Target Or Test System: Bile acid receptor (Homo sapiens, UniProt Q96RI1)
# Sequence (Q96RI1 whole entry): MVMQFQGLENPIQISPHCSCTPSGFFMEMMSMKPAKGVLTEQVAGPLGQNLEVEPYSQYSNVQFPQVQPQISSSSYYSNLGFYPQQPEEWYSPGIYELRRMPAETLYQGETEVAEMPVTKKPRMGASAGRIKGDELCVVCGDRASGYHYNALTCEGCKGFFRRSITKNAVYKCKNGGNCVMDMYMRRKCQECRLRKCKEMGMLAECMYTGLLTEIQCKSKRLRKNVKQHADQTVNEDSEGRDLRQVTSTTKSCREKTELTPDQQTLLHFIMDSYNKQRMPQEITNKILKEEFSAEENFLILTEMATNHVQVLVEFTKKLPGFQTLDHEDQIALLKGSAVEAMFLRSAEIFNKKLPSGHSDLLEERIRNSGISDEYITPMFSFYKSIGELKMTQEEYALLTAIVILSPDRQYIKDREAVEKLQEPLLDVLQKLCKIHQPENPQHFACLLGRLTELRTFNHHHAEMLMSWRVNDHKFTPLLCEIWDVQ
# Experiment Notes: Transactivation of human FXR expressed in human HeLa cells co-expressing BSEP after 24 hrs by dual-glo luciferase reporter gene assay
# Assay type: cell-based
# Run Parameters: read-out: EC50
Measurement Name: EC50

Line Notation: Cc1ccc2nc(-c3ccc4c(c3)OCCO4)c(NCc3ccccc3)n2c1
Result: 170 nM
--
Line Notation: Cc1ccc2nc(-c3ccc(-c4ccccc4)cc3)c(NCc3ccccc3)n2c1
Result: 81 nM
--
Line Notation: Clc1ccc2nc(-c3cccs3)c(NCc3ccccc3)n2c1
Result: 160 nM
--
Line Notation: Cc1ccc2nc(-c3cccs3)c(N[C@@H](C)c3ccccc3)n2c1
Result: 1300 nM
--
Line Notation: Cc1ccc2nc(-c3cc(Cl)ccn3)c(NCc3ccccc3)n2c1
Result: 1.5 nM
--
Line Notation: COc1ccc2nc(-c3cccs3)c(NCc3ccccc3)n2c1
Result: 830 nM
--
Line Notation: c1ccc(CNc2c(-c3cccs3)nc3ccc(-c4ccccc4)cn23)cc1
Result: 200 nM
--
Line Notation: Cc1ccc2nc(-c3ccco3)c(NCc3ccccc3)n2c1
Result: 560 nM
--
Line Notation: CCc1ccn2c(NCc3ccccc3)c(-c3cccs3)nc2c1
Result: 1200 nM
--
Line Notation: Cc1ccc2nc(-c3cnccn3)c(NCc3ccccc3)n2c1
Result: 1200 nM
--
Line Notation: FC(F)(F)c1ccc2nc(-c3cccs3)c(NCc3ccccc3)n2c1
Result: 460 nM
--
Line Notation: COc1ccc(-c2nc3ccc(C)cn3c2NCc2ccccc2)cc1OC
Result: 910 nM
--
Line Notation: Cc1ccc2nc(CCc3ccccc3)c(NCc3ccccc3)n2c1
Result: 310 nM
--
Line Notation: Cc1ccc2nc(-c3cccs3)c(NCCc3ccccc3)n2c1
Result: 1000 nM
--
Line Notation: COc1cccc(-c2nc3ccc(C)cn3c2NCc2ccccc2)c1
Result: 250 nM
--
Line Notation: Brc1ccc2nc(-c3cccs3)c(NCc3ccccc3)n2c1
Result: 500 nM
--
Line Notation: Cc1ccc2nc(-c3ccc(Cl)cn3)c(NCc3ccccc3)n2c1
Result: 7.4 nM
--
Line Notation: Cc1ccc2nc(-c3ccccc3)c(NCc3ccccc3)n2c1
Result: 280 nM
--
Line Notation: Cc1cccc(-c2nc3ccc(C)cn3c2NCc2ccccc2)c1
Result: 180 nM
--
Line Notation: Cc1ccc2nc(-c3ccc(F)c(Cl)c3)c(NCc3ccccc3)n2c1
Result: 26 nM
--
Line Notation: Cc1ccc2nc(-c3cccs3)c(NCCCCc3ccccc3)n2c1
Result: 750 nM
--
Line Notation: Cc1ccc(CNc2c(-c3cccs3)nc3ccc(C)cn23)cc1
Result: 220 nM
--
Line Notation: COc1ccc(CNc2c(-c3cccs3)nc3ccc(C)cn23)cc1
Result: 170 nM
--
Line Notation: Cc1ccc2nc(/C=C/c3ccccc3)c(NCc3ccccc3)n2c1
Result: 1160 nM
--
Line Notation: Cc1ccc2nc(-c3ccncc3)c(NCc3ccccc3)n2c1
Result: 2000 nM
--
Line Notation: Cc1ccc(-c2nc3ccc(C)cn3c2NCc2ccccc2)cc1
Result: 130 nM
--
Line Notation: Cc1ccc2nc(-c3ccc4ccccc4c3)c(NCc3ccccc3)n2c1
Result: 210 nM
--
Line Notation: Cc1ccc2nc(-c3ccc(Br)cc3)c(NCc3ccccc3)n2c1
Result: 430 nM
--
Line Notation: Cc1ccc2nc(-c3cccs3)c(N[C@H](C)c3ccccc3)n2c1
Result: 3200 nM
--
Line Notation: Cc1ccc2nc(-c3cccc(Cl)n3)c(NCc3ccccc3)n2c1
Result: 80 nM
--
Line Notation: Cc1ccc2nc(-c3ccoc3)c(NCc3ccccc3)n2c1
Result: 1900 nM
--
Line Notation: COc1ccc(CNc2c(-c3cc(Cl)ccn3)nc3ccc(Cl)cn23)cc1
Result: 0.3 nM
--
Line Notation: c1ccc(CNc2c(-c3cccs3)nc3ccccn23)cc1
Result: 4000 nM
--
Line Notation: Cc1ccc2nc(-c3cccc(Cl)c3)c(NCc3ccccc3)n2c1
Result: 16 nM

# credit: ChEMBL document CHEMBL4038333
